Every entry's value here was drawn from patent US7273848B2.

Tested On: LCAT (purified from human plasma) (Homo sapiens, UniProt P04180)
Construct: from tissue; host or cells: human plasma
Sequence (P04180 25-440): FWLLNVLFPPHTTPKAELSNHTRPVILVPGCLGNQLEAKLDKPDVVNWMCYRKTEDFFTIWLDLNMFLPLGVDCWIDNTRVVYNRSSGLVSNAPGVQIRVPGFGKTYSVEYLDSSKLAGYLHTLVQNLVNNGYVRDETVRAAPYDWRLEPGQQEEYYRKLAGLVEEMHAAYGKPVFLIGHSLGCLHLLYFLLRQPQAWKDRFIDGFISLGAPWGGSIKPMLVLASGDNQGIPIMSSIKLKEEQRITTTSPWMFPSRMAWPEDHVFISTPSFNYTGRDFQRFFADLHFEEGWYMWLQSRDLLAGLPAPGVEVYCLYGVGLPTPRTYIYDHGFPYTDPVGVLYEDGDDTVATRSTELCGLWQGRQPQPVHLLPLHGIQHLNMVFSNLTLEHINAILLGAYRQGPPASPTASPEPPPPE
Method Summary: LCAT activation assay
Assay type: biochemical
Measurement Context: LCAT activation as compared with native human ApoA-I (= 100%), equivalent masses
No end group written: not given here.
Recorded measurements of ACTIVITY (%) LCAT, one per entry

Reference set, count: 5
[
  {
    "Substance": "Ac-EWLEAFYKKVLEKLKELF-NH2 [compound 239, reference compound]",
    "Test Result": "11%"
  },
  {
    "Substance": "PVLELFDNLLEKLLEALQKKLR [compound 178]",
    "Test Result": "9%"
  },
  {
    "Substance": "PVLDLFRNLLEKLLEALEQKLK [compound 49]",
    "Test Result": "22%"
  },
  {
    "Substance": "Ac-PVLDLFRELLEELKNKLK-NH2 [compound 196]",
    "Test Result": "81%"
  },
  {
    "Substance": "PVLDLFRNLLEELLEALQKKLK [compound 66]",
    "Test Result": "15%"
  }
]

Continue with the next substance.
Per the records, this substance ( PVLDLFREGLNELLEALKQKLK [compound 20] ) has ACTIVITY (%) LCAT equal to 57%

###

Method Summary: Circular dichroism helicity determination
Type: physicochemical
Measurement Context: percent helicity; peptide-SUV complexes (20:1 EPC:Chol., Ri=30 and Ri=50), 37° C.
No end group written: not given here.
Attribute Measured: He (%) SUVs
// units = %; emit number, no label

Reference set, count: 4
[
  {
    "Sequence Record": "PVLELFENLLERLLDAWQKKLK [compound 164]",
    "He (%) SUVs": 51
  },
  {
    "Sequence Record": "PVLDLFRELLNELWEALKQKLK [compound 28]",
    "He (%) SUVs": 90
  },
  {
    "Sequence Record": "PVLDLFRELLNEWLEALKQKLK [compound 54]",
    "He (%) SUVs": 84
  },
  {
    "Sequence Record": "PVLDLFRELLELLKQKLK [compound 217]",
    "He (%) SUVs": 76
  }
]

Per the records, this sequence ( PVLDLFNELLRELLEALQKKLK [compound 40] ) has He (%) SUVs equal to 79

Per the records, this sequence ( PVLDLFKELLNELLEALKQKLK [peptide 7] ) has He (%) SUVs equal to 85

Per the records, this sequence ( PVLDLFRELLEELQKKLK [compound 220] ) has He (%) SUVs equal to 54

Per the records, this sequence ( VLDLFRELLNELLEALKQKLK [compound 67] ) has He (%) SUVs equal to 84

Per the records, this sequence ( PVLDLFRELLEELLKALKKKLK [compound 39] ) has He (%) SUVs equal to 68

###

Tested On: LCAT (purified from human plasma) (Homo sapiens)
Construct: from tissue; host or cells: human plasma
Method Summary: LCAT activation assay
Type: biochemical
Measurement Context: LCAT activation as compared with native human ApoA-I (= 100%), equivalent masses
No end group written: not given here.
# cutoff 20% applies to ACTIVITY (%) LCAT; >= gives Met, < gives Not met

[
  {
    "Substance": "PVLELFENLLEKLLEALQKKLK [compound 182]",
    "Discrete Label": "Not met"
  },
  {
    "Substance": "Ac-PVLDFFRELLEELKQKLK-NH2 [compound 204]",
    "Discrete Label": "Met"
  },
  {
    "Substance": "PLLELFENLLEKLLDALQKKLK [compound 183]",
    "Discrete Label": "Not met"
  },
  {
    "Substance": "PVLELFENLWERLLDALQKKLK [peptide 149]",
    "Discrete Label": "Met"
  },
  {
    "Substance": "PVLELFENLLERLLDLLQKKLK [compound 165]",
    "Discrete Label": "Met"
  }
]

Please examine the following record next.
Check if ACTIVITY (%) LCAT >= 20% (inclusive). Item: GIKKFLGSIWKFIKAFVG [peptide 242, reference compound] Not met

###

Tested On: LCAT (purified from human plasma) (Homo sapiens, UniProt P04180)
Construct: from tissue; host or cells: human plasma
Method Summary: LCAT activation assay
Type: biochemical
Measurement Context: LCAT activation as compared with native human ApoA-I (= 100%), equivalent masses
No end group written: not given here.
Recorded measurements of ACTIVITY (%) LCAT, one per entry

[
  {
    "Substance": "PVLDLFENLLERLLDALQKKLK [compound 159]",
    "Attribute Measured": "ACTIVITY (%) LCAT",
    "Test Result": "28%"
  },
  {
    "Substance": "PVLELFENLGERLLDALQKKLK [peptide 151]",
    "Attribute Measured": "ACTIVITY (%) LCAT",
    "Test Result": "55%"
  },
  {
    "Substance": "GVLDLFRELLNELLEALKQKLKK [peptide 2]",
    "Attribute Measured": "ACTIVITY (%) LCAT",
    "Test Result": "105%"
  },
  {
    "Substance": "PVLELFEQLLEKLLDALQKKLK [compound 168]",
    "Attribute Measured": "ACTIVITY (%) LCAT",
    "Test Result": "17%"
  },
  {
    "Substance": "PLDLFRELLNELLEALKQKLK [compound 85]",
    "Attribute Measured": "ACTIVITY (%) LCAT",
    "Test Result": "7%"
  }
]

Per the records, this substance ( PVLDLFRELLELLKQKLK [compound 217] ) has ACTIVITY (%) LCAT equal to 30%

Per the records, this substance ( PVLELFENLLERLLDAWQKKLK [compound 164] ) has ACTIVITY (%) LCAT equal to 24%

Per the records, this substance ( PVLDAFRELLEALLQLKK [compound 222] ) has ACTIVITY (%) LCAT equal to 8%

Per the records, this substance ( PVLDEFREKLNEPLEALKQKLK [compound 113] ) has ACTIVITY (%) LCAT equal to 0%

Per the records, this substance ( Ac-PVLDLFRELLEELKQKLK-NH2 [compound 193] ) has ACTIVITY (%) LCAT equal to 96%

Per the records, this substance ( Ac-PVLDLFRELLNELLQKLK-NH2 [compound 218] ) has ACTIVITY (%) LCAT equal to 29%

Per the records, this substance ( DWLKAFYDKVAEKLKEAF [peptide 244, reference compound] ) has ACTIVITY (%) LCAT equal to 5%

Per the records, this substance ( Ac-PVLDLFRELGEELKQKLK-NH2 [compound 227] ) has ACTIVITY (%) LCAT equal to 0%

Per the records, this substance ( PVLDEFREKLNEELEALWQKLK [compound 121] ) has ACTIVITY (%) LCAT equal to 0%

Per the records, this substance ( PLLELFENLLERLLDALQKKLK [peptide 150] ) has ACTIVITY (%) LCAT equal to 57%

Per the records, this substance ( PVLELFENLLERLGDALQKKLK [peptide 148] ) has ACTIVITY (%) LCAT equal to 75%

Per the records, this substance ( Ac-DWLKAFYDKVAEKLKEAF-NH2 [compound 240, reference compound] ) has ACTIVITY (%) LCAT equal to 10%

Per the records, this substance ( PVLEFFENLLERLLDALQKKLK [compound 157] ) has ACTIVITY (%) LCAT equal to 30%

Per the records, this substance ( PVLDLFRELLNELLELLKQKLK [compound 127] ) has ACTIVITY (%) LCAT equal to 47%

Per the records, this substance ( VLDLFRELLNEGLEALKQKLK [compound 47] ) has ACTIVITY (%) LCAT equal to 23%

Per the records, this substance ( PVLDEFRELLNELLEALKQKLK [compound 79] ) has ACTIVITY (%) LCAT equal to 9%

Per the records, this substance ( PVLELFERLLDELLNALQKKLK [compound 86] ) has ACTIVITY (%) LCAT equal to 7%

Per the records, this substance ( GVLELFLNLLERLLDALQKKLK [compound 177] ) has ACTIVITY (%) LCAT equal to 10%

Per the records, this substance ( Ac-PVLELFKELLEELKQKLK-NH2 [compound 195] ) has ACTIVITY (%) LCAT equal to 87%

Per the records, this substance ( Ac-PLLELLKELLEELKQKLK-NH2 [compound 206] ) has ACTIVITY (%) LCAT equal to 57%

Per the records, this substance ( PVLELFENWLERLLDALQKKLK [compound 162] ) has ACTIVITY (%) LCAT equal to 27%

Per the records, this substance ( PVLDLFREGWEELKQKLK [compound 224] ) has ACTIVITY (%) LCAT equal to 8%

Per the records, this substance ( DWFKAFYDKFFEKFKEFF [peptide 247, reference compound] ) has ACTIVITY (%) LCAT equal to 3%

Per the records, this substance ( PVLDLFRELLNELLEALKQ [compound 60] ) has ACTIVITY (%) LCAT equal to 16%

Per the records, this substance ( PVLELFKELLQELLEALKQKLK [compound 17] ) has ACTIVITY (%) LCAT equal to 59%

Per the records, this substance ( PVLDWFRELLNELLEALKQKLK [compound 35] ) has ACTIVITY (%) LCAT equal to 31%
